Some compounds, each annotated with its measured growth.
- Tested on: OVCAR-5 ovarian
- MEASUREMENT_NOTES: NCI-60 one-dose screen, 48 h (100 = growth as untreated, 0 = no growth, -100 = all killed)
- CONDITION_SUMMARY: 10 µM unless noted
The panel holds about 83,000 compounds, 20% with a hit somewhere; the sample as a whole holds those more often.
// note: answer is a bare numeric in %

Lab book: growth of `CCCCOc1ccc(/C=C2/SC(N3CCCC3)=NC2=O)cc1` noted as 90.1

Reported growth of `CCN(CC)CCCNc1nccc2ccc(Cl)cc12` : 92

Continuing:
Per the records, this compound ( `CC(=O)Oc1cccc(S(=O)(=O)n2cc(C(=O)C(=O)Nc3ccncc3)c3ccccc32)c1` ) has growth equal to 90.8

---

This section presents compounds with their documented growth values.
- System: HCC-2998 colon
- MEASUREMENT_NOTES: NCI-60 one-dose screen, 48 h (100 = growth as untreated, 0 = no growth, -100 = all killed)
- CONDITION_SUMMARY: 10 µM unless noted
- Protocol: Growth inhibition of the HCC-2998 human tumor cell line is measured as a screen for anti-cancer activity. Cells are grown in 96 well plates and exposed to the test compound for 48 hours. Compounds are tested at a single concentration, which is 10^-5 M for most compounds. The reported endpoint is percent growth (GI% or GIPRCNT), where numbers from 0 - 100% represent growth inhibition, and numbers from -100% - 0 represent cell death. For example, a value of 40 represents 60% growth inhibition. […]
Compounds without any hit were thinned out: in the full panel of roughly 83,000, 20% have a hit.
Give the value in % but do not write % after it.

Study these solved cases before continuing.
growth reading for `CCC(=O)Oc1ccc(/C(=C(/C)Cc2cccc(OC)c2)c2ccc(OCCN(C)C)cc2)cc1` : 95.1

Record `Cc1cc(C2(c3cc(C)c(O)cc3C)OS(=O)(=O)c3ccccc32)c(C)cc1O` . Reported growth: 101

Turning now to a further compound:
growth reading for `Cc1nc2cncc(C#Cc3cncc(C(=O)Nc4ccc(CN5CCN(C)CC5)c(C(F)(F)F)c4)c3)c2nc1C` : 30.7

---

Entries and their growth
- System: KM12 colon
- MEASUREMENT_NOTES: NCI-60 one-dose screen, 48 h (100 = growth as untreated, 0 = no growth, -100 = all killed)
- CONDITION_SUMMARY: 10 µM unless noted
About 83,000 compounds went through this panel and 20% of them were active in at least one assay; those are over-represented in the sample as a whole. Activity calls are given as the source filed them. How the source made its calls: active means growth percent below 10; inactive means the rest.

Worked cases, growth given:
Lab note: `O=C1CCCCC1(c1ccccc1)c1ccccc1` gave growth of 100% (inactive)

// growth lookup, compound = `CCOC(=O)/C(C#N)=C1/C(=O)Nc2ccccc21` , result: 112% (inactive)

growth recorded for this compound, CCN(CC)CCC(CNc1c2ccc(Cl)cc2nc2ccc(OC)cc12)c1ccccc1 (configuration not stated) , is -24.1% (active)

Entry `COc1ccc(-c2cc3c(OC)c(OC)c(OC)cc3oc2=O)cc1` , growth reported as 21.9% (inactive)

// sample CC(C)(C)N1CCC1C(N)=O (configuration not stated) , its growth was 99.2% (inactive)

Further cases:
growth recorded for this compound, `COc1cc(/C=C/c2cc(/C=C/c3ccc(O)c(OC)c3)n(C(N)=O)n2)ccc1O` , is 3.47% (active)

Sure, the documented growth for `Cc1nn(-c2ccc([N+](=O)[O-])cc2)c2ncnc(NCCc3ccccc3)c12` is 96.1% (inactive)

Sure, the documented growth for `CCCCCCCCN(CCCCCCCC)CCCCCCNc1cc(OC)cc2cccnc12` is 58.9% (inactive)

// field: growth; key: `CCCCCCCCCCCCCCCCNC(=O)OC(C)C` ; value = 0.501% (active)

Recorded result, `Cc1ccc(CSC(=N)N)cc1C` , growth: 107% (inactive)
